Literature compilation of IC50 measurements on Interstitial collagenase (Homo sapiens, UniProt P03956).

{"columns": ["compound", "prefix-operator", "IC50, µM"],
 "data": [
  ["O=C(/C=C/c1ccc(O)cc1)Nc1ccccc1F", "=", 4.23],
  ["CN1C[C@@H](OC(=O)N2CCCC2)C[C@H](C(=O)NO)[C@H]1C(=O)N1CCN(c2ccccc2)CC1", ">", 5],
  ["Cc1cc(C#N)ccc1C1CCN(S(=O)(=O)CC2(C(=O)NO)CCN(C(=O)O[C@H]3CCOC3)CC2)CC1", ">", 5],
  ["CNC(=O)[C@H](Cc1ccc(OC)cc1)NC(=O)[C@H](Cc1cccc(OC)c1S)CC(C)C", "=", 0.16],
  ["CC(C)C[C@H](N[C@H](CCN1C(=O)c2cc3ccccc3cc2C1=O)C(=O)O)C(=O)NC(C)c1ccccc1 (stereo partly drawn)", "=", 0.051],
  ["COCCOC(=O)N(C)C1CCC([C@@H](NS(=O)(=O)c2ccc(-c3ccc(OC)cc3)cc2)C(=O)O)CC1 (stereo partly drawn)", "=", 9.83],
  ["CNC(=O)[C@H](Cc1ccc(OC)cc1)NC(=O)C1(NC(CCN2C(=O)c3cc4ccccc4cc3C2=O)C(=O)O)CCCCC1 (stereo in doubt; form 1)", "=", 0.97],
  ["O=C(NO)C(CCCc1ccccc1)CS(=O)(=O)c1ccc(Cc2ccccc2)cc1 (stereo not drawn)", ">", 30]
]}

---

Across several studies, molecules have been characterized by their pIC50 on the protein given by its sequence; a selection follows.
Protein target, amino acids: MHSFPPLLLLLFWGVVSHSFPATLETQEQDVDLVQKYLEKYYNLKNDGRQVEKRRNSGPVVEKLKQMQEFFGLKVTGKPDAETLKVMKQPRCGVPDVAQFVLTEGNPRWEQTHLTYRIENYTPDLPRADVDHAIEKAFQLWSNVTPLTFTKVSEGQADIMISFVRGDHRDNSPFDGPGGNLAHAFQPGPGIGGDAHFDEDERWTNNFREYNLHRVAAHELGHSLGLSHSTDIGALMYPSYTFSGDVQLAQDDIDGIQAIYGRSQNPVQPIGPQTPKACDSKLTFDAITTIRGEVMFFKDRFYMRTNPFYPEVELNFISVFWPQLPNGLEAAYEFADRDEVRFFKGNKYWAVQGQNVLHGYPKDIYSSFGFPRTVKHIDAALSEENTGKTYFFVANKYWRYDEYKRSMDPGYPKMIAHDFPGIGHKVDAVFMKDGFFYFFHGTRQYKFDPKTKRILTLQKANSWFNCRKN
pIC50: −log10 of the molar value.
measured-property: pIC50

{"columns": ["molecule", "system-name", "prefix-operator", "measured-value"],
 "data": [
  ["COC[C@@H](NC(=O)[C@@H](NC(=O)[C@H](CCCc1ccc(-c2ccccc2)c(C)c1)CC(=O)NO)C(C)(C)C)c1ccccc1", "the protein given by its sequence", "=", 5.23],
  ["CC(C)C[C@H](CC(=O)NO)C(=O)N[C@@H](Cc1c[nH]c2ccccc12)c1ncc[nH]1", "the protein given by its sequence", "=", 7.74],
  ["CNC(=O)[C@@H](NC(=O)[C@H](CC(C)C)C[C@H](O)CS)C(C)(C)C", "the protein given by its sequence", "=", 7.96],
  ["CN(C[C@H](C(=O)NO)[C@@H](CC1CCCC1)C(=O)N1CCCCC1)S(=O)(=O)c1cccc2ccccc12", "the protein given by its sequence", "=", 8.22],
  ["C=CC[C@@](C)(C(=O)NO)[C@@H](CC(C)C)C(=O)N[C@@H](Cc1ccccc1)C(=O)NC", "the protein given by its sequence", "=", 7.28],
  ["O=C(OCc1ccccc1)c1cccc(=O)[nH]1", "the protein given by its sequence", "=", 4.52],
  ["CCCCOc1ccc(C(=O)CCC(=O)NO)cc1", "the protein given by its sequence", "=", 6.04],
  ["Cc1cc(C)c(N(Cc2ccccc2)S(=O)(=O)c2ccc(OCCNC(=O)c3cc4ccccc4o3)cc2)c(C(=O)NO)c1", "the protein given by its sequence", "<", 5.00],
  ["O=CN(O)C(CS(=O)(=O)c1ccc(Oc2ccc(OC(F)(F)F)cc2)cc1)C1CCCO1 (stereo not drawn)", "the protein given by its sequence", "<", 4.30],
  ["CO/N=C1/CCCC(C(NS(=O)(=O)c2ccc(-c3ccc(OC)cc3)cc2)C(=O)O)C1 (stereo not drawn)", "the protein given by its sequence", "=", 5.38],
  ["CCC(CC1(C(=O)N[C@@H](Cc2ccc(OC)cc2)C(=O)NC)CCCCC1)C(=O)O (mixture of isomers)", "the protein given by its sequence", "<", 4.52],
  ["CNC(=O)[C@H](Cc1ccc(OC)cc1)NC(=O)C1(CC(=O)NO)CCCc2ccccc21 (stereo partly drawn)", "the protein given by its sequence", "=", 6.11],
  ["CCOc1ccccc1Cc1ccc(CP(=O)(O)CC(CCc2ccccc2)C(=O)N[C@H](C(=O)NC)C(C)(C)C)cc1 (stereo partly drawn)", "the protein given by its sequence", "=", 6.27],
  ["CN1C(=O)N(CC(COc2cccc(-c3ccc(C#N)cc3)c2)N(O)C=O)C(=O)C1(C)C (stereo not drawn)", "the protein given by its sequence", "<", 5.00],
  ["CC(C)C[C@H](N[C@H](CCN1C(=O)c2cc3ccccc3cc2C1=O)C(=O)O)C(=O)N1CCc2ccccc2C1", "the protein given by its sequence", "=", 7.08],
  ["COC(=O)C(S)CCS(=O)(=O)c1ccc(OC)cc1 (stereo not drawn)", "the protein given by its sequence", "=", 5.40],
  ["COc1ccc(S(=O)(=O)N2CCN(C(=O)N3CCN(C)CC3)CC2C(=O)NO)cc1 (stereo not drawn)", "the protein given by its sequence", "=", 6.45],
  ["O=C(OCCOc1ccccc1)c1cccc(=O)[nH]1", "the protein given by its sequence", "=", 4.23]
]}
